Source of measurements: patent US20140288040A1

# target.entity: HCV NS3 protease (full length NS34a) (Hepatitis C virus genotype 1b)
# Construct: The protease activity of the full length NS34a was measured using a FRET-based assay; made in house
# Sequence (P26663 1658-1711): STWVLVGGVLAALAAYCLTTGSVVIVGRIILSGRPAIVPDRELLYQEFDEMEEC
# Sequence (P26663 1027-1657): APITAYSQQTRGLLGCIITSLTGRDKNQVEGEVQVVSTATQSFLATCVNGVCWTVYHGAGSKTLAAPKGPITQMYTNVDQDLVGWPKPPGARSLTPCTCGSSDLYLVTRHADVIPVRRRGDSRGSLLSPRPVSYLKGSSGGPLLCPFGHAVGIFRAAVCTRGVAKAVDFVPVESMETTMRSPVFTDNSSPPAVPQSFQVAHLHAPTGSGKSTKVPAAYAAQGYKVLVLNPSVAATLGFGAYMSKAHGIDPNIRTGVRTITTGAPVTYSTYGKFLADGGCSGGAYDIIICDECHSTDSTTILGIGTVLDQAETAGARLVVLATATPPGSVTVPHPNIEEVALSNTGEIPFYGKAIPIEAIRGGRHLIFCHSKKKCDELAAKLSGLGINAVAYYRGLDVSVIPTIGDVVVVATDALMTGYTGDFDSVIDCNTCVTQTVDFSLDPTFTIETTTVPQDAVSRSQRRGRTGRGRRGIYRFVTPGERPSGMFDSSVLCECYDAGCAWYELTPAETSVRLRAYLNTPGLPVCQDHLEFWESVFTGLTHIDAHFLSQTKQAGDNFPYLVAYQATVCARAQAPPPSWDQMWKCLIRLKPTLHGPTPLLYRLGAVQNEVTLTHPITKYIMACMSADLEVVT
# measurement.protocol: HCV NS3 protease assay (FRET, full length NS34a)
# Type: biochemical
# measurement.context: protease activity of full length NS34a, FRET peptide substrate; read-out: Activity IC50
In this section, each of the compounds is paired with its reported IC50.
Quick reminder: number only, in nM, skip the unit.

compound	quantitative.result
CC[C@@H](N)c1ccc(Cl)c(Oc2ccc(S(=O)(=O)NC)cc2)c1F	8600

Briefly, IC50 measured for N[C@H]1CC[C@H](NCc2cccc(Oc3ccccc3)c2)CC1 : 5300

Briefly, IC50 measured for C[C@@H](CC(N)=O)N[C@@H](CC1CCNCC1)c1ccc(F)c(Oc2ccccc2)c1F : 1600

Briefly, IC50 measured for CC[C@H](NCCO)c1ccc(F)c(Oc2ccccc2)c1F : 1100

Briefly, IC50 measured for CC[C@@H](N[C@@H](C)c1ccc[nH]c1=O)c1ccc(Cl)c(Oc2ccccc2)c1F (single isomer, unassigned) : 3500

Briefly, IC50 measured for CC[C@@H](N[C@@H](C)CC(=O)NCC(N)=O)c1ccc(Cl)c(Oc2ccccc2)c1F : 2200
